Source: ChEMBL document CHEMBL6074674

Method summary: MRT in ICR mouse at 10 mg/kg, po by LC-MS/MS analysis
Type: ADME, organism-based
Condition parameters: in vivo
Observable: MRT (h)
Record the value in h, omitting the unit from your answer.

// returns reported MRT for input COc1cc2ncnc(Nc3ccc(F)c(Cl)c3)c2cc1OCCn1cc(CCCO[Si](c2ccccc2)(c2ccccc2)C(C)(C)C)nn1
2.57

----------
Form field: Activity (one value per entry).
System: E3 ubiquitin-protein ligase RNF149/Epidermal growth factor receptor (Homo sapiens), P00533+Q8NC42 [UNDEFINED MUTATION]
Sequence (P00533 whole entry, looked up, change not shown): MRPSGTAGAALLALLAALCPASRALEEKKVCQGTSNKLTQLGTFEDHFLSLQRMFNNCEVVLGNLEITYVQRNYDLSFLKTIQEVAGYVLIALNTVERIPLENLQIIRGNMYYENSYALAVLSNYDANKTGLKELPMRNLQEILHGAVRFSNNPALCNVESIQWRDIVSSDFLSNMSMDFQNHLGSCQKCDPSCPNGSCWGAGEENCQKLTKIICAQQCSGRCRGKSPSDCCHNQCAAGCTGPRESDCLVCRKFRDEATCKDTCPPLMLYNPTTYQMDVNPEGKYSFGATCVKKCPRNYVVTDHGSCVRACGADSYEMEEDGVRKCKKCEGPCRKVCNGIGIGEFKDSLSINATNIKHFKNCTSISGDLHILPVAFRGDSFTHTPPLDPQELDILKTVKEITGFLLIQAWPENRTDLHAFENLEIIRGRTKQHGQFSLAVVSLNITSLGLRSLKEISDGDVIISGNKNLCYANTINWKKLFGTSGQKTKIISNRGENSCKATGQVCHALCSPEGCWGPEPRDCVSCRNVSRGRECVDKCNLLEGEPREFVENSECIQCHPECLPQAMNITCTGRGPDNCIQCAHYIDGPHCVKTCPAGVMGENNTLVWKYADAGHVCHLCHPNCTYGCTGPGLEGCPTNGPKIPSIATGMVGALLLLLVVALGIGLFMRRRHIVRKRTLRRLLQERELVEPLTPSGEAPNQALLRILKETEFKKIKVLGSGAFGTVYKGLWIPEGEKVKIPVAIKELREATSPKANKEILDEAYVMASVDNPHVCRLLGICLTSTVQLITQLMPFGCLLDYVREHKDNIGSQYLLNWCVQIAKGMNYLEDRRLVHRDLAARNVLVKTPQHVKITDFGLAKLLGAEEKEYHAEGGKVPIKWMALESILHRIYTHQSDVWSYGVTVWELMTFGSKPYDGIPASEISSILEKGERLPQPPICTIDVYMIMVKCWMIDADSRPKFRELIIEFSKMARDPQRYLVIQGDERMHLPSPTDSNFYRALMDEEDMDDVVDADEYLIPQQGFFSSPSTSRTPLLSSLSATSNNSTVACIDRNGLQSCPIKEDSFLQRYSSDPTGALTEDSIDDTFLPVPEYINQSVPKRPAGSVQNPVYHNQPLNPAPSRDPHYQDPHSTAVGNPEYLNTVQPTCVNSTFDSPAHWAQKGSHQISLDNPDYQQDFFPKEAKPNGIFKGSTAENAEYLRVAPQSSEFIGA
Sequence (Q8NC42 whole entry, looked up, change not shown): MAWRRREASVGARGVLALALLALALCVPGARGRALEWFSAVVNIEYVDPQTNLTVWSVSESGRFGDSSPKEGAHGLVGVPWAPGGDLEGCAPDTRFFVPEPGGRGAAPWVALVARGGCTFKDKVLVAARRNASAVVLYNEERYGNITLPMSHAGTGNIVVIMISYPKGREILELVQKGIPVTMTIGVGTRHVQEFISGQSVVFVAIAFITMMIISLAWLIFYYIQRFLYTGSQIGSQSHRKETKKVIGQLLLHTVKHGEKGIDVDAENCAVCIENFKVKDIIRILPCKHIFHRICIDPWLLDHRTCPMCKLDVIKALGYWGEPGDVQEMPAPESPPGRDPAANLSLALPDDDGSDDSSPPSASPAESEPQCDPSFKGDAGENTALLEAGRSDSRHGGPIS
Method summary: SiHyT-mediated degrader activity at RNF149/EGFR mutant in human HCC827 cells assessed as induction of EGFR degradation at 1 uM cells incubated in serum-free media for 8 hrs followed by incubation with compound for 24 hrs by western blot analysis
Type: cell-based
Just the number please, in %, no unit attached.

In the examples that follow, each entry is paired with its recorded Activity.
COc1cc2ncnc(Nc3ccc(F)c(Cl)c3)c2cc1OCCn1cc(CCCO[Si](C)(C)C2CCCCC2)nn1 = 55.3
COc1cc2ncnc(Nc3ccc(F)c(Cl)c3)c2cc1OCCCN1CCN(CCn2cc(CCO[Si](c3ccccc3)(c3ccccc3)C(C)(C)C)nn2)CC1 = 58

Query (compound): COc1cc2ncnc(Nc3ccc(F)c(Cl)c3)c2cc1OCCCN1CCN(CCn2cc(CCCCO[Si](c3ccccc3)(c3ccccc3)C(C)(C)C)nn2)CC1 ; field requested: Activity
0

And then COc1cc2ncnc(Nc3ccc(F)c(Cl)c3)c2cc1OCCOCCOCCO[Si](c1ccccc1)(c1ccccc1)C(C)(C)C , what is it?
20.1
